Tested on: OVCAR-8
method.notes: NCI tumour cell line growth inhibition, 48 h
The source made the active and inactive calls. Cut-off read from the data, not from the text of the source: active = GI50 up to about 1.1 µM and inactive = higher.
Mark one answer only. Choices: active, inactive

Reference set, count: 3
> print(dat)
                                   compound  category
1             NC(=O)C12CC3CC(CC(F)(C3)C1)C2  inactive
2  CC(C)c1c(O[Si](C(C)C)(C(C)C)C(C)C)cc2c(c1O)CC[C@H]1C(C)(C)CCC[C@]21C  inactive
3  CC1(C)CC[C@]2(C(=O)O)CC[C@]3(C)C(=CC[C@@H]4[C@@]5(C)CC[C@@H]6OC(C)(C)OC[C@@]6(C)[C@@H]5CC[C@]43C)[C@H]2C1  inactive

I'd appreciate the recorded outcome for C=C1C(=O)OC2C=C(C)CC3C=C(CCC=C(C)CCC12)C(=O)O3 (centres undefined) from this test.
inactive

I'd appreciate the recorded outcome for `O=C(Nc1ccc(Cl)cc1)c1cc([N+](=O)[O-])ccc1O` from this test.
inactive

I'd appreciate the recorded outcome for COC(=O)/C=C(/C(=O)OC)C1(C)c2cc(C(=O)OC)c(C(=O)OC)c(N)c2C(=N)N1c1ccccc1 (centres undefined) from this test.
inactive

I'd appreciate the recorded outcome for `COc1ccc(/N=c2/[nH]c(N)c(C(=O)c3ccc(OC)cc3)s2)cc1` from this test.
active

I'd appreciate the recorded outcome for CC(=O)OCC1OC(n2c(=S)n(-c3ccccc3)c(=O)c3cc(Br)ccc32)C(OC(C)=O)C1OC(C)=O (centres undefined) from this test.
inactive

I'd appreciate the recorded outcome for CCC(C)[C@@H](NCc1ccccc1)[C@H](OCc1ccccc1)[C@@H]1COC(C)(C)O1 (some centres undefined) from this test.
inactive

I'd appreciate the recorded outcome for Cc1ccc(S(=O)(=O)C2=c3nc4ccccc4cc3=C3C(=O)c4ccccc4C(=O)C32)cc1 (centres undefined) from this test.
inactive

I'd appreciate the recorded outcome for `O=c1c2cccnc2oc2c(Cl)cc(-c3nnn[nH]3)cc12` from this test.
inactive

I'd appreciate the recorded outcome for CCOC(=O)C1=C(C)N(Cc2ccccc2)C2(O)C=CC(=O)C3C(=O)N(c4ccccc4)C(=O)C132 (centres undefined) from this test.
inactive

I'd appreciate the recorded outcome for Cc1ccc(S(=O)(=O)N2CCC2c2ccccc2)cc1 (centres undefined) from this test.
inactive

I'd appreciate the recorded outcome for `COC(=O)C#Cc1ccc([N+](=O)[O-])cc1` from this test.
inactive

I'd appreciate the recorded outcome for CC1=NN(C(=O)CSc2nnc(SCC(=O)N3N=C(C)CC3(O)c3ccccc3)s2)C(O)(c2ccccc2)C1 (centres undefined) from this test.
inactive

I'd appreciate the recorded outcome for `COc1cc(/C=C/C(=O)CC(=O)/C=C/c2cc(OC)c(O)c(OC)c2)cc(OC)c1O` from this test.
inactive

I'd appreciate the recorded outcome for `Cc1ccccc1C(=O)N1CCN(C(=O)c2ccccc2C)CC1` from this test.
inactive

* * *

System: XF498
method.notes: NCI tumour cell line growth inhibition, 48 h
The source made the active and inactive calls. Rule as the data show it: active = GI50 up to about 1.1 µM and inactive = higher.
parameter: GI50

These recorded examples may help you get a feel for the data.
> print(dat)
                                   compound  study.target      recorded.result
1  O=C1C2=C(c3ccccc31)C(c1ccc(F)cc1)N1C(=O)CCSC1=N2 (stereo not given)         XF498  > 100 µM (inactive)
2       COc1cc2ccc(/C(C)=N/OC(C)=O)cc2cc1OC         XF498   83.6 µM (inactive)
3           CCOC(=O)c1cccc(=O)c(C(=O)OCC)c1         XF498   46.1 µM (inactive)

What value of GI50 has been reported for the following compound? C=C1C(=O)OC2/C=C(CO)/C=C\C3OC3(C)CC(OC(=O)/C(C)=C/COC(C)=O)C12 (stereo not given)
2.47 µM (inactive)

What value of GI50 has been reported for the following compound? Cc1ccc(C)c(NC(=O)C(=O)C(C2C(C)CC(=O)C2CC(=O)O)[N+](=O)[O-])c1 (stereo not given)
> 100 µM (inactive)

What value of GI50 has been reported for the following compound? COc1cccc(/C=N\NC(=O)C(C)SC(C)C(=O)N/N=C/c2cccc(OC)c2)c1 (stereo not given)
53.1 µM (inactive)

What value of GI50 has been reported for the following compound? c1ccc(C2SCc3nc4ccccc4n32)cc1 (stereo not given)
20.7 µM (inactive)

What value of GI50 has been reported for the following compound? COC(=O)/C=C(/C(=O)OC)C1(C)c2cc(C(=O)OC)c(C(=O)OC)c(N)c2C(=N)N1c1ccccc1 (stereo not given)
14.7 µM (inactive)

What value of GI50 has been reported for the following compound? `CNC(=O)OCc1cc2ccncc2c2c1[nH]c1ccccc12`
> 45.1 µM (inactive)

What value of GI50 has been reported for the following compound? C=C1C(=O)OC2CCCCC3OC3C12 (stereo not given)
12 µM (inactive)

* * *

Tested on: UACC-62
method.notes: NCI tumour cell line growth inhibition, 48 h
Calls of active or inactive are those of the source. Cut-off read from the data, not from the text of the source: active = GI50 up to about 1.1 µM and inactive = higher.
Listed next: entries and their corresponding GI50.

What value of GI50 has been reported for the following compound? CCOc1ccc(/N=N/C2C(=O)N(C(=O)CC(=O)Nc3ccc(C)cc3)N=C2C)cc1 (stereo not given)
16.7 µM (inactive)

What value of GI50 has been reported for the following compound? `O=C1Oc2ccccc2C(=O)/C1=C/N1C(=O)N/C(=C\c2ccccc2O)C1=O`
36.9 µM (inactive)

What value of GI50 has been reported for the following compound? `CCOC(=O)/C(C(=S)NC)=C(/N)N1CCCC1`
> 100 µM (inactive)

What value of GI50 has been reported for the following compound? `c1ccc(/N=C(/Nc2ccccc2)N2CCCC2)cc1`
> 100 µM (inactive)

What value of GI50 has been reported for the following compound? COc1ccc2c3c([nH]c2c1[N+](=O)[O-])C(C)N(Cc1ccccc1)CC3 (stereo not given)
3.1 µM (inactive)

* * *

System: DLD-1
method.notes: NCI tumour cell line growth inhibition, 48 h
Activity calls are given as the source filed them. Rule as the data show it: active = GI50 up to about 1.1 µM and inactive = higher.
Mark one answer only. Choices: 1 (yes) = active, 0 (no) = inactive

Reference set, count: 5
> print(dat)
                                   compound  study.target  category
1  CC(C)(C)OC(=O)NC1CCC[C@H]1O (stereo partly specified)         DLD-1    0 (no)
2     O=C(Nc1cccc2ccccc12)Oc1ccccc1C1CCCCC1         DLD-1    0 (no)
3  CN(C)CCNC(=O)C1COc2cc(-c3cc(=O)c4ccccc4o3)ccc2O1 (stereo unspecified)         DLD-1    0 (no)
4  Cc1cc(NC(=O)NC(=O)c2ccccc2N)ccc1Oc1ncc(Br)cn1         DLD-1   1 (yes)
5             NC(=O)C12CC3CC(CC(F)(C3)C1)C2         DLD-1    0 (no)

Note: attention shifts to another entry.
I'd appreciate the recorded outcome for CC(C)(C)OC(=O)NC1CCC(C(C)(C)C)CC1 (stereo unspecified) from this test.
0 (no)

* * *

Listed next: entries and their corresponding GI50.
System: HT-29
method.notes: NCI tumour cell line growth inhibition, 48 h
Calls of active or inactive are those of the source. Rule as the data show it: active = GI50 up to about 1.1 µM and inactive = higher.

What value of GI50 has been reported for the following compound? `COc1ccc(-n2nnnc2C2(Nc3ccccc3)CCN(Cc3ccccc3)CC2)cc1`
6.82 µM (inactive)

What value of GI50 has been reported for the following compound? `Cc1cc(N(CCC#N)CCC#N)ccc1/C=C(\N=[N+]=[N-])C(=O)NC(=O)COc1ccccc1`
> 100 µM (inactive)

What value of GI50 has been reported for the following compound? `CCOC(=O)/C(=C\Nc1c(C)n(C)n(-c2ccccc2)c1=O)C(=O)c1ccccc1`
> 100 µM (inactive)

What value of GI50 has been reported for the following compound? CC1(C)OC(=O)N(c2ccccc2)C12C=Cc1cc([N+](=O)[O-])ccc1O2 (stereo not given)
35.5 µM (inactive)

What value of GI50 has been reported for the following compound? `O=C1C=C(N2CCCC2)C=C(N2CCCC2)C1`
> 100 µM (inactive)

* * *

System: HT-29
method.notes: NCI tumour cell line growth inhibition, 48 h
The source made the active and inactive calls. No stated cut-off is given here; in the data, active = GI50 up to about 1.1 µM and inactive = higher.
Listed next: entries and their corresponding GI50.

What value of GI50 on HT-29 does COC1/C=C/C(C)C(O)CC(O)/C=C/C(C)C(C(C)C(OC)C(C)CCC(=O)C(C)C(C/C=C/N(C)C=O)OC)OC(=O)/C=C/C=C(\C)CC(OC)CC2=CC(=O)O[C@@H](C(C)C(OC)C1)[C@H]2O (stereo not given in full) have?
< 0.005 µM (active)

What value of GI50 on HT-29 does `Clc1ccc(CN2CCCN(Cc3ccc(Cl)cc3)C2c2cc3ccccc3c3ccccc23)cc1` have?
36.8 µM (inactive)

What value of GI50 on HT-29 does `CCN(CC)CCCn1c(=O)c2cccnc2n2c3c(=O)n(C)c(=O)n(C)c3nc12` have?
> 100 µM (inactive)

What value of GI50 on HT-29 does `O=Cc1c(O)c(C(=O)Nc2ccc3[nH]c(=O)[nH]c3c2)cc2ccccc12` have?
> 100 µM (inactive)

What value of GI50 on HT-29 does O=C1/C(=C\c2cccc(Oc3ccccc3)c2)SC(c2ccccc2)N1c1ccccc1 (stereo not given) have?
26.4 µM (inactive)

What value of GI50 on HT-29 does CC(=O)OCC1OC(n2c(=S)n(-c3ccccc3)c(=O)c3cc(Br)ccc32)C(OC(C)=O)C1OC(C)=O (stereo not given) have?
> 100 µM (inactive)

What value of GI50 on HT-29 does Cc1cc2nn(C3CCCO3)nc2cc1C (stereo not given) have?
> 100 µM (inactive)

What value of GI50 on HT-29 does `Cc1nnc2n(c1=O)CCN2C` have?
> 100 µM (inactive)

What value of GI50 on HT-29 does O=C(O)C1OC(n2cc(F)c(=O)[nH]c2=O)CC1O (stereo not given) have?
63.8 µM (inactive)

What value of GI50 on HT-29 does COc1c(C)cc2c(c1O)C1NC(C2)[C@H](O)N2C3COC(=O)[C@@]4(CS[C@@H](c5c(OC(C)=O)c(C)c6c(c53)OCO6)C12)NCCC1=C4NC2C=CC=CC12 (stereo not given in full) have?
< 0.01 µM (active)

What value of GI50 on HT-29 does [O-][S+]1[C@H](c2ccccc2)c2c(-c3ccccc3)sc(-c3ccccc3)c2[C@@H]1c1ccccc1 (stereo not given in full) have?
41 µM (inactive)

What value of GI50 on HT-29 does `COc1cccc2[nH]c(-c3ccccn3)nc12` have?
> 100 µM (inactive)

What value of GI50 on HT-29 does O=C1c2ccccc2C(C2c3ccccc3C(=O)c3cc(Br)ccc32)c2ccc(Br)cc21 (stereo not given) have?
> 100 µM (inactive)

What value of GI50 on HT-29 does `CN(C)/N=C1/CCC(C(F)(F)F)(C(F)(F)F)O1` have?
41.8 µM (inactive)

What value of GI50 on HT-29 does CC(C)CNC1=NCC(C)S1 (stereo not given) have?
> 100 µM (inactive)

What value of GI50 on HT-29 does `O=C(NC1CCCCC1)c1c(O)[nH]c(=S)[nH]c1=O` have?
> 100 µM (inactive)

Where these numbers come from: ChEMBL document CHEMBL1201862
